Origin of values: the nanobody polyreactivity screen of Harvey et al. (2022)

# measurementNotes: yeast display, Sf9 membrane polyspecificity reagent, FACS + sequencing; frameworks hold sequencing errors
reportedProperty: polyreactivity (PSR sort gate)

1. QVQLVESGGGLVQAGGSLRLSCAASGIIFSYYAMGWYIQAPGKERELVAAISSSGVSTNYADSVKGRFTISRDNAKNTVYLQMNSLKPEDTAVYYCNARGYYWYRPYVNSNGGYWGQGTQVTVSS: high polyreactivity
2. QVQLVESGGGLVQAGGSLRLSCAASGSIFGRNAMGWYRQAPGKERELVAAISSRSDRTYYADSVKGRFTISRDNAKNTVYLQMNSLKPEDTAVYYCAARYGSSQNGYKSDYWGQGTQVTLSS: high polyreactivity
3. QVQLVESGGGLVQAGGSLRLSCAASGSIFAVNAMGWYRQAPGKERELVAAISFGGGDTYYADSVKGRFTISRDNAKNTVYLQMNSLKPEDTAVYYCAADVITRGVKYLGQVAYEYWGQGTQVTVSS: low polyreactivity
4. QVQLVESGGGLVQAGGSLRLSCAASGSIFYVNAMGWSRQAPGKERELVAAITSGVSTNYADSVKGSFTISRDNAKNTVYLQMNSLKREDTAVYYSAADYTYKQLHWVIEDYWGQGTQVTVSS: low polyreactivity

polyreactivity (PSR sort gate) lookup needed for QVQLVESGGGLVQAGGSLRLSCAASGFIFETNAMGWYRQAPGNERELVAAISSRGGSTYYADSVKGRFTISRDNAKNTVYLQMNSLKPEDTAVYYCAAKLVVSYGQEYDYWGQGTQVTVSS , thanks.
low polyreactivity

###

# measurementNotes: yeast display, Sf9 membrane polyspecificity reagent, FACS + sequencing; frameworks hold sequencing errors
reportedProperty: polyreactivity (PSR sort gate)

// solved cases for polyreactivity (PSR sort gate) follow
1) QVQIVESGGGLVQAGGSLSLSCAASGRTFQRNAMGWYRQAPGKERELVAAITTGSRTYYADSVKGRFTISRDNAKNTVYLQMNSLKPEDTAVYYCAAVATRRDYGYWGQGTQVTVLS: high polyreactivity
2) QVQLVESGGGLVQAGGSLRLSCAASGSTFRYYSMGWYRQAPGKERELVAAITRSGTSTYYADSVKGRFTISRDTAKNTVYLQMNSLQPEDTAFYYCNAVTPYSREYDYWGQGTQVTVSS: high polyreactivity
3) QVQLVESGGGLVQAGGSLRLSCAASGFTFSEYAMGWYRQAPGKERELVAAISQRGGSTYYADSVKGRFTISRDNAKNTVYLQMNSLKPEDTAVYYCAADSARYYGAKRFGYWGQGTQVTVSS: high polyreactivity
4) QVQLVESGGGLVQAGGSLRLSCAASGLIFWHYAMGWYRQAPGKERELVARISYGGGSTYYADSVKGRFTISRDNAKNTVYLQMNSLKPEDTAVYYCNAKYYSVSQYWYNYWGQGTQVTVSS: high polyreactivity
5) QVQHVESGGGSVQAGGRLRLSCAASGSTFIEYAMGWYRKAPGKERELVAGITTSSGRTSYADSVKGRFTISRDNAKNTVYLQMNSLKPEDTAVYYCAAKSYSDYDYWGQGTQVTVSS: low polyreactivity

Batch request: polyreactivity (PSR sort gate) for each of the following sequences.
1. QVQHVESGGGLVQAVGSLRLSCAASGNIFDRNAMGWYRQARGKERELVAAISRSGGRTYYADSVKGRFTISRDNAKNTVYLQMNSLKPEDTAVYYCNRRYRKYSSAKYDYWGQGTQVTVSS
2. QVQLVESGGGLVHAGGSLRLSCAASRYTFVNYAMGWYSQAPGKERELVAAITSRGSSTYYADSVKGRFTLSRDNAKNTVYLQMNSLNPEDTAVYYCYVHVRNHDYWGEGTQVTVSS
3. QVQLVESGGALVQAGGSLRLSCAASGSTIYQNAMGWYRQAPGKERELVAVISSGGSTYYADSVKGRFTISRDNAKNTVYLQMNSLKAEDTAVYYCAADRGTVSYLYSPRAVDYWGQGTQVTVSS

["high polyreactivity", "high polyreactivity", "low polyreactivity"]

Batch request: polyreactivity (PSR sort gate) for each of the following sequences.
1. QVQLVESGGGLVQAGGSLRLSCAASGNTFSLYAMGWYRQAPGKERELVAAITWITGSTDYADSVKGRFTISRDNAKNTVYLQMNSLKPEDTAVYYCAADGDFSWFYSYETGWIEYDYWGQGTQVTVSS
2. QVQLVESGGGLVQAGGSLRLICAASGRIFRINAMGWYRQAPGKEREFVAAISWRSGSTYYADSVKGRFTISRDNAKNSVYLQMNSLKPEDTAVYYCAAKLYGYRSGYYYWGQGTQVTVSS
3. QVQLVESGGGLVQAGGSLRLSCAASGSIFYSYAMGWYRQAPGKERELVADITWYGGRTYYADSVKGRFTISRDNAKNTVYLQMNSLKPEDTAVYYCAADVYLYDYWGQGTQVTISS
4. QVHLVESGGGLVQAGGSLRLSCAASGSIFSRNAMGWYRQAPGKERELVAAISRGANTYYADSVKGRFTISRDNAKNTVYLQMNSLKPEDTAVYYCNAGSRSRYEGGYWGQGTQVTVSS
5. QVQLVESGGGLVQAGGSLRLSCAASGRTFGRYAMGWYRQAPGKERELVAAITRGGGSTYYADSVKGRFTISRDNAKNTVYLQMNSLKPEDTAVYYCAARNFRSPYGYDYWGQGTQVTVSS

1: low polyreactivity; 2: high polyreactivity; 3: high polyreactivity; 4: high polyreactivity; 5: high polyreactivity

Batch request: polyreactivity (PSR sort gate) for each of the following sequences.
1. QVQLVESGGGLVQAGGSLRLSCAASGRIFSGNAMGWYRQAPGKERELVAAITWSGSSTFYADSVKGRFTISRDNAKNTVYLQMNSLKPEDTAVYYCAVDSSSPVRPHTDEDYWGQGTQVTVSS
2. QVQLVESGGGLVQAGGSLRLSCAASGRTISKNAMGWYRQAPGKERELVAAISGSGGSTYYADSVKGRFTISRDNAKNTVYLQMNSLKPEDTAVYYCADRYTVSRSGYWGQGTQVTVSS
3. QVQLVESGGGLVQAGGSLRLSCAASGSIFGSNAMGWYRQAPGKERELVAANSKSGGSTYYADSVKGRFTISRDNAKITVYLQMNSLKPEDTAVYYCNARWWVVTFYGRYEGDYWGQGTQVTVSS
4. QVQLVESGGGLVQAGGSLRLSCAASGSTFATYAMGWYRQAPGKERELVAAITSGGSTYYADSVKGRFTISRDNAKNTVYLQMNSLKPEDTAVYYCAARSYGWRRATYYKREEYWGQGTQVTVSS
5. QVQLVESGVRLLQAGGSLRLSCAASGITSDDNTMGWYRQAPGKERELVARIRRTGGGTYYADSVKGRFTISRDNAKNTVYLQINSLKPEDSAVYYCAAVPSWGYRFNRVPYLWVDYWGQGTQVTVSS
6. QVQLVESGGGLVQAGGSLRLSCAASGSTSYDNAMGWYRQAPGKERELVASISSDGSTNYADSVKGRFTISRDNAKNTVYLQMNSLKPEDTAVYYCNVEVTRGLSHDPEYDYWGQGTQVTVSS
7. QVQLVESGGGLVQAGGSLRLSCDASGRMFALYAMGWYRQAPGKERELVAAITWRGGRTRYADSVKGRFTISRDNAKNTVYLQMTSLKPEDTAVYYCNKRLFASRYDYWGQGTQVTVSS

1. low polyreactivity
2. high polyreactivity
3. low polyreactivity
4. high polyreactivity
5. low polyreactivity
6. low polyreactivity
7. high polyreactivity

polyreactivity (PSR sort gate) lookup needed for QVQLVESGGGLVQAGGSLRLSCAASGFTFSGYAMGWYRQAPGKERELVAAISTSGGNTYYADSVKGRFTISRDNAKNTVYLQMNSLKPEDTAVYYCAADDWPWGDAGVDYWGQGTLVTVSS , thanks.
low polyreactivity

###

# measurementNotes: yeast display, Sf9 membrane polyspecificity reagent, FACS + sequencing; frameworks hold sequencing errors
reportedProperty: polyreactivity (PSR sort gate)

1) QVQLVESGGGLVQAGGSLRLSCAASGRIFTVYAMGWYRQAPGKERELVAAIDWSDGSTYYADSVKGRFTISRDNAKNTVYLQMNCLKPEVTAVYYCAAETYWVVEYDYWGQGTQVTVSS: high polyreactivity
2) QVQLVESGGGLVQAGGSLRLSCASSGSTFLINAMGWYRQAPGKERELVAAISRDGSTNYADSVKGRFTISRDNAKNTVYLQMHSLIPEDTAVYSCAAVPGISVGRQPGYDYDYWGQGTQVTVSS: low polyreactivity
3) QVQLVESGAGLVQAGGSLRLSCAASGRTFKTYAMAWYRQAPGKERELVAAISRDGRTYYADSVKGRFTISRDNAKNTVYLQMNSLKPEDTAVYYCAKDASVWPWWGYRGDYWGQGTQVTVSS: low polyreactivity
4) QVQLVESGGGLVQAGGSLRLSCAASGFTFYSNAMGWYRQAPGKERELVATIRYRGGSTYADSVKGRFTISRDNAKNTVYLQMNSLKPEDTAVYYCAARKYRSFRQRTGDYWGQGTQVTVSS: high polyreactivity
5) QVQLVESGGGLVQAGGSLRLSCAASGSIYRNNAMGWYRQAPGKERELVAVISRRAGNTYYAVSVKGRFTISRDNAKNTVYLQMNSLKPEDTAVYYCAADYSKSSIRGDYWGQGTQVTVSS: low polyreactivity

Batch request: polyreactivity (PSR sort gate) for each of the following sequences.
1. QVQLVESGGGLVQAGGSLRLSCAASGSTFYTYAMGWYRQAPGKERELVAAISNRGGSTRYADSVKGRFTISRDTAKNTVYLQMNSLKPEDTAVYYCAARVTQTGYYWGQGTQVTVSS
2. QVQLVESGGGLVQAGGSLRLSCAASGRTFYGYAKGWYIQAPGKERELVAAITRAGSTNYADSVKGRFTISRDNAKNTFYLQLNSLKPEDTAVYYCAAVRVHTDRYNYWGQGTQVTVSS
3. QVQLVESGGGLVQAGGSLRLSCASSGFTFYSYAMGWYRQAPGKERELVAAISKRGGSTYYADSVKGRFTISRDNAKNTVYLQMNSLQPEDTAVYYCNADYPYYYGYDYWGQGTQVTVSS
4. QVQLVVSGGGLVQAGGSLRISCAASGITFGRYAMGRYRPAPGKERELVAAISWSGGSTYYADSVKGRFTISRDNAKNTVFLQMNSLKPEDTAVYYCALEWYYTSYHIRFYRDNYWGQGTQVTVSS
5. QVQLVESGGGLVQAGGSLRLSCAASGSIRSYAMGWYRQAPGKERELVAAITRSGGSTYYADSVKGRFTISRDNAKITVYLQMNSLKPEDTAFYYCAARYTYSYPLFGSWGQGTQVTVSS

1. high polyreactivity
2. high polyreactivity
3. high polyreactivity
4. high polyreactivity
5. high polyreactivity
